Assay: qHTS for Inhibitors of human tyrosyl-DNA phosphodiesterase 1 (TDP1): qHTS in cells in presence of CPT; further: nearly all actives have a fitted effect of over 55% in size
Details: chicken DT40 Tdp1-/-;hTDP1 cells + 20 nM CPT, ATP luminescence, 48 h; series mostly up to 46.2 µM
The whole screen tested about 420,000 compounds, of which about 50,000 (12%) were called active. Roughly 26% stayed inconclusive and do not appear here. The call rests on the fitted dose curve; in most records, active means well fitted inhibition curve with a large enough effect; inconclusive means small, poorly fitted or top-dose-only effect; inactive means flat fitted curve, though single readings scatter. The sample holds actives, similar compounds and a random draw of the others, so the mix is not that of the screen.
Possible outcomes: t (active), f (inactive)

* CC(OC(=O)CNC(=O)c1cccc(F)c1)C(=O)NC1CCCCC1C (stereo not drawn) | f
* CCOc1cccc2c1OC1(CCCCC1)N1N=C(c3cccnc3)CC21 (stereo not drawn) | f
* CCOc1ccc(S(=O)(=O)N2CCC(c3ccccc3)CC2)cc1C(=O)O | f
* CC(=NNC(=S)N1CCCCCC1)c1ccccn1 | t
* C/C=C/NNC(=O)Cc1ccc(OC)cc1 | t
* CCOC(=O)c1cc2c(=O)n3ccccc3nc2n(CCCOC)c1=NC(=O)C(C)(C)Oc1ccc(Cl)cc1 | f
* O=C(Nc1ccc(NC(=O)c2ccccc2F)cc1)c1ccccc1F | f
* COc1ccccc1OCC(=O)O/N=C(\N)c1ccccn1 | f
* CS(=O)(=O)c1ccc(C(=O)OCC(=O)NNC(=O)COc2ccc(Cl)cc2)cc1 | f
* N#Cc1ccc(CN2CCCC3(CCN(C(=O)c4ccco4)CC3)C2)cc1 | f
* Cc1ccc2c(=O)c(C(=O)c3cccc(Cl)c3)cn(CC(=O)NCc3ccccc3)c2n1 | f
* COc1ccc(C/C(C)=N/NC(=O)c2ccncc2)cc1 | f
* COc1ccc(CC(=O)Nc2ccc(C(=O)NC(C)(C)C)cc2)cc1 | f
* COc1ccc(C/C(C)=N/NC(=O)c2cc(C)oc2C)cc1 | f
* COc1ccccc1C(=O)N1C(CC(=O)Nc2ccccc2C)C(=O)NC2CCCCC21 (stereo not drawn) | f
* O=C(Nc1nonc1-c1ccc(Cl)cc1)c1ccco1 | f
* CC(C)CC(NS(=O)(=O)c1ccc2c(c1)oc(=O)n2C)C(=O)NCc1ccccc1Cl (stereo not drawn) | f
* Cc1cccc(C(=O)OC(C)CN2CCCC2)c1 (stereo not drawn) | f
* C/C(=N\NC(=O)Cc1ccc(Cl)cc1)c1ccccn1 | t
* CCCCCNC(=O)Cc1ccc(OC)cc1 | f
* Cc1cc(C)c2c(NC(=O)C3CC3)nn(C)c2n1 | f
* Cc1ccc(Cl)cc1NC(=O)c1ccccn1 | f
* Cc1ccc(N2CCN(C(=O)CCc3c(C)nc4c(c3C)c(=O)n(C)c(=O)n4C)CC2)c(C)c1 | f
